Where do these numbers come from? They come from ChEMBL document CHEMBL1145359.

- Tested on: Mus musculus
- EXPERIMENTAL PROTOCOL: Acute neurotoxicity in mouse at 300 mg/kg, ip after 4 hrs by rotarod test
- Format: toxicity, organism-based
- Set-up: dose 300 mg/kg, route intraperitoneal
- CONDITION LABEL: in vivo
ASSAY METRIC: Activity

{"columns": ["COMPOUND", "Activity"],
 "data": [
  ["Cc1cccc(C)c1NC(=O)CNCCCC(=O)N1CCCCC1", "Active"],
  ["Cc1cccc(C)c1NC(=O)CCCNCC(=O)Nc1c(C)cccc1C", "Not Active"],
  ["Cc1cccc(C)c1NC(=O)CNCCCC(=O)N(C)C", "Active"],
  ["Cc1cccc(C)c1NC(=O)CNCCCC(=O)Nc1ccccc1Br", "Active"],
  ["Cc1cccc(C)c1NC(=O)CNCCCC(=O)O", "Not Active"],
  ["CCC1(C)CC(=O)NC1=O (stereo unspecified) [ETHOSUXIMIDE]", "Not Active"]
]}

For reference, reported Activity for Cc1cccc(C)c1NC(=O)CNCCCC(=O)N1CCN(c2cccc(C(F)(F)F)c2)CC1 stands at Not Active

For reference, reported Activity for CCC1(c2ccccc2)C(=O)NC(=O)NC1=O [PHENOBARBITAL] stands at Active

For reference, reported Activity for Cc1cccc(C)c1NC(=O)CNCCCC(=O)Nc1ccccc1 stands at Active

For reference, reported Activity for Cc1cccc(NC(=O)CCCNCC(=O)Nc2c(C)cccc2C)c1 stands at Not Active

For reference, reported Activity for Cc1cccc(C)c1NC(=O)CNCCCC(=O)Nc1cccc(Cl)c1C stands at Not Active

* * *

- Test system: Mus musculus
- EXPERIMENTAL PROTOCOL: Acute neurotoxicity in mouse at 300 mg/kg, ip after 0.5 hrs by rotarod test
- Type: toxicity, organism-based
- Parameters: dose 300 mg/kg, route intraperitoneal
- CONDITION LABEL: in vivo
ASSAY METRIC: Activity

Consider the following illustrative entries.
{"columns": ["COMPOUND", "ASSAY SYSTEM", "ASSAY METRIC", "TEST VALUE"],
 "data": [
  ["Cc1cccc(C)c1NC(=O)CCCNCC(=O)Nc1c(C)cccc1C", "Mus musculus", "Activity", "Active"],
  ["Cc1cccc(C)c1NC(=O)CNCCCC(=O)Nc1ccccc1", "Mus musculus", "Activity", "Active"],
  ["Cc1cccc(C)c1NC(=O)CNCCCC(=O)O", "Mus musculus", "Activity", "Active"],
  ["Cc1ccc(NC(=O)CCCNCC(=O)Nc2c(C)cccc2C)c(C)c1", "Mus musculus", "Activity", "Active"],
  ["Cc1cccc(C)c1NC(=O)CNCCCC(=O)N1CCN(c2cccc(C(F)(F)F)c2)CC1", "Mus musculus", "Activity", "Not Active"]
]}

For reference, reported Activity for CCC1(C)CC(=O)NC1=O (configuration not stated) [ETHOSUXIMIDE] stands at Not Active

For reference, reported Activity for Cc1cccc(NC(=O)CCCNCC(=O)Nc2c(C)cccc2C)c1 stands at Active

For reference, reported Activity for Cc1cccc(C)c1NC(=O)CNCCCC(=O)Nc1cccc(Cl)c1C stands at Active

* * *

- Test system: Mus musculus
- EXPERIMENTAL PROTOCOL: Anticonvulsant activity against maximal-electroshock-induced seizure in mouse at 300 mg/kg, ip after 0.5 hrs
- Type: functional, organism-based
- Set-up: dose 300 mg/kg
Calls of active or inactive are those of the source. The calls are words filed in the database; no cut-off is given here.
// classify into YES = active, NO = inactive

Completed entries (count: 4):
{"columns": ["COMPOUND", "ASSIGNED CATEGORY"],
 "data": [
  ["CCC1(C)CC(=O)NC1=O (stereo unspecified) [ETHOSUXIMIDE]", "NO"],
  ["Cc1cccc(C)c1NC(=O)CNCCCC(=O)N1CCC(C)CC1", "NO"],
  ["Cc1cccc(C)c1NC(=O)CNCCCC(=O)N1CCN(c2cccc(C(F)(F)F)c2)CC1", "NO"],
  ["Cc1cccc(C)c1NC(=O)CNCCCC(=O)N(c1ccccc1)c1ccccc1", "YES"]
]}

INPUT: What was the test verdict on Cc1cccc(C)c1NC(=O)CNCCCC(=O)N(C)C ?
OUTPUT: NO

INPUT: What was the test verdict on Cc1cccc(NC(=O)CCCNCC(=O)Nc2c(C)cccc2C)c1 ?
OUTPUT: NO

* * *

- Test system: Mus musculus
- EXPERIMENTAL PROTOCOL: Acute neurotoxicity in mouse at 300 mg/kg, ip after 4 hrs by rotarod test
- Assay type: toxicity, organism-based
- Parameters: dose 300 mg/kg, route intraperitoneal
- CONDITION LABEL: in vivo

{"columns": ["STRUCTURE AS SMILES", "Activity"],
 "data": [
  ["CCCCN(CCCC)C(=O)CCCNCC(=O)Nc1c(C)cccc1C", "Not Active"],
  ["Cc1cccc(C)c1NC(=O)CNCCCC(=O)N(c1ccccc1)c1ccccc1", "Not Active"]
]}

* * *

- System: Mus musculus
- EXPERIMENTAL PROTOCOL: Acute neurotoxicity in mouse at 300 mg/kg, ip after 0.5 hrs by rotarod test
- Format: toxicity, organism-based
- Set-up: dose 300 mg/kg, route intraperitoneal
- CONDITION LABEL: in vivo

{"columns": ["STRUCTURE AS SMILES", "Activity"],
 "data": [
  ["Cc1cccc(C)c1NC(=O)CNCCCC(=O)N(c1ccccc1)c1ccccc1", "Active"],
  ["Cc1cccc(C)c1NC(=O)CNCCCC(=O)Nc1ccccc1Br", "Active"],
  ["CCCCN(CCCC)C(=O)CCCNCC(=O)Nc1c(C)cccc1C", "Active"]
]}
